Test system: Epidermal growth factor receptor (Homo sapiens), P00533 [L858R]
Sequence (P00533 whole entry L858R): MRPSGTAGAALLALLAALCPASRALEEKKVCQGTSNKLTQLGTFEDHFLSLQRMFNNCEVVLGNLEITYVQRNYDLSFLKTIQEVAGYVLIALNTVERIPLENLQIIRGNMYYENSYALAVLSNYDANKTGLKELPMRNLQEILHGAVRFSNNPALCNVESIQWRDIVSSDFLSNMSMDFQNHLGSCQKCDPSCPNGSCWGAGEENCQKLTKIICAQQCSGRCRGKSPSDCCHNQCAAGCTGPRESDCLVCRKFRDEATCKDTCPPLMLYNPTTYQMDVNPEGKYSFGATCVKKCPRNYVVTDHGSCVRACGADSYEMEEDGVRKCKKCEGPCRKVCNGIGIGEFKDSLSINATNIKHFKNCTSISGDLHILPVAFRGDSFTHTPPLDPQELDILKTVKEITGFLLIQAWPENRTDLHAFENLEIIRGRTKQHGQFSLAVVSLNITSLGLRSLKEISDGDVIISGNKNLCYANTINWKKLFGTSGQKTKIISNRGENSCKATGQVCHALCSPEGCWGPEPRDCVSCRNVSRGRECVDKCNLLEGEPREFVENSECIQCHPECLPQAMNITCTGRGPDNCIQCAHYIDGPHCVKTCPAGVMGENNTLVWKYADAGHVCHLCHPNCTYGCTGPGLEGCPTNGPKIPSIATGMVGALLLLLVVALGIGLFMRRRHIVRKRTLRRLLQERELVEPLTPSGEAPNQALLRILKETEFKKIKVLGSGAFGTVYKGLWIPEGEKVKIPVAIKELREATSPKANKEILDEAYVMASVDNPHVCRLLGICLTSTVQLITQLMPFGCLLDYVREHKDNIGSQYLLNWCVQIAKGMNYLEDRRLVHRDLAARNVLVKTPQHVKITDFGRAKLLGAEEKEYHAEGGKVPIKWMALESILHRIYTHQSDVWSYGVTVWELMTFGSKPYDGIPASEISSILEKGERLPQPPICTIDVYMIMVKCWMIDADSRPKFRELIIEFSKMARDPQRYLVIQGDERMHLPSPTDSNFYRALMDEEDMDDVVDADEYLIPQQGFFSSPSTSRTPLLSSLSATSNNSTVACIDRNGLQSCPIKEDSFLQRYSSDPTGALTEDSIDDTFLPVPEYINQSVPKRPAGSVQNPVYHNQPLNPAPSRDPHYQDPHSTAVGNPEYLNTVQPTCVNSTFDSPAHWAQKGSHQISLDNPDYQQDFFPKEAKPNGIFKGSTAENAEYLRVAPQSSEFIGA
Conditions: at 1 µM
Measured Endpoint: inhibition (%)
Form entry: value (%) — number only.

- CCCN1CCCC(c2ccc(Nc3nc(Nc4cc(F)ccc4C(N)=O)c4cc[nH]c4n3)c(OC)c2)C1 (stereo not given): 37.5
- C[C@@H](Oc1cc(-n2cnc3ccc(OCC4CCN(C)CC4)cc32)sc1C(N)=O)c1ccccc1C(F)(F)F: 42.5
- COC(=O)c1ccc2c(c1)C(=Cc1cc(Br)c(O)c(Br)c1)C(=O)N2: 11.3
- COC(=O)c1cncc(/C=C/c2c(C)cc(O)cc2C)c1: 11.5
- NC(=O)c1cccc(Nc2nccc(Nc3cccc(F)c3)n2)c1: 31.4

Switching to the query record.
So what inhibition did `COc1cccc(-n2ncc3c(N/N=C/c4ccc(C)cc4)ncnc32)c1` get with Epidermal growth factor receptor (Homo sapiens), P00533 [L858R]?
11.7
